- targetOfAssay: T1, AFP158/HLA-A*02:01 complex (human)
- T1 construct: flowed as analyte in SPR
- procedureText: SPR, crude scFv captured, pMHC analyte;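 also: complex injected at several concentrations over the chip, association phase then running buffer for dissociation, KD derived from on- and off-rates computed from both curves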
endpointName: kon

Answered examples (4):
[ask] Query (binder): AS170036 VL1VH1-57M98Q108D (scFv, also called 83-AS170036 VL1VH1-57M98Q108D) scFv: QSALTQPRSVSGSPGQSVTISCAGTSSDVGSENYVSWYQQHPGKAPKLMIYQVNKRASGVPDRFSGSKSGNTASLTISGLQAEDEADYYCASYRSSDQNIVFGGGTKLTVLGGGGSGGGGSGGGGSEVQLVESGGGLVQPGGSLRLSCAASGFTFSSYAMSWVRQAPGKGLEWVSTINSGTGMPYYADSVKGRFTISRDNSKNTLYLQMNSLRAEDTAVYYCAKNFFDGSWFLDPPAMDYWGQGTLVTVSSHHHHHH ; field requested: kon
[reply] 240000 M⁻¹ s⁻¹

[ask] Query (binder): AS170036 VL1VH1-57H98F108S (scFv, also called 60-AS170036 VL1VH1-57H98F108S) scFv: QSALTQPRSVSGSPGQSVTISCAGTSSDVGSENYVSWYQQHPGKAPKLMIYQVNKRASGVPDRFSGSKSGNTASLTISGLQAEDEADYYCASYRSSDFNIVFGGGTKLTVLGGGGSGGGGSGGGGSEVQLVESGGGLVQPGGSLRLSCAASGFTFSSYAMSWVRQAPGKGLEWVSTINSGTGHPYYADSVKGRFTISRDNSKNTLYLQMNSLRAEDTAVYYCAKNFFDGSWFLSPPAMDYWGQGTLVTVSSHHHHHH ; field requested: kon
[reply] 200000 M⁻¹ s⁻¹

[ask] Query (binder): AS170036 VL1VH1-57K98F108S (scFv, also called 69-AS170036 VL1VH1-57K98F108S) scFv: QSALTQPRSVSGSPGQSVTISCAGTSSDVGSENYVSWYQQHPGKAPKLMIYQVNKRASGVPDRFSGSKSGNTASLTISGLQAEDEADYYCASYRSSDFNIVFGGGTKLTVLGGGGSGGGGSGGGGSEVQLVESGGGLVQPGGSLRLSCAASGFTFSSYAMSWVRQAPGKGLEWVSTINSGTGKPYYADSVKGRFTISRDNSKNTLYLQMNSLRAEDTAVYYCAKNFFDGSWFLSPPAMDYWGQGTLVTVSSHHHHHH ; field requested: kon
[reply] 160000 M⁻¹ s⁻¹

[ask] Query (binder): AS170036 VL1VH1-57M98F108D (scFv, also called 77-AS170036 VL1VH1-57M98F108D) scFv: QSALTQPRSVSGSPGQSVTISCAGTSSDVGSENYVSWYQQHPGKAPKLMIYQVNKRASGVPDRFSGSKSGNTASLTISGLQAEDEADYYCASYRSSDFNIVFGGGTKLTVLGGGGSGGGGSGGGGSEVQLVESGGGLVQPGGSLRLSCAASGFTFSSYAMSWVRQAPGKGLEWVSTINSGTGMPYYADSVKGRFTISRDNSKNTLYLQMNSLRAEDTAVYYCAKNFFDGSWFLDPPAMDYWGQGTLVTVSSHHHHHH ; field requested: kon
[reply] 280000 M⁻¹ s⁻¹

More entries:
[ask] Query (binder): AS170036 VL1VH1-56N98Q108D (scFv, also called 56-AS170036 VL1VH1-56N98Q108D) scFv: QSALTQPRSVSGSPGQSVTISCAGTSSDVGSENYVSWYQQHPGKAPKLMIYQVNKRASGVPDRFSGSKSGNTASLTISGLQAEDEADYYCASYRSSDQNIVFGGGTKLTVLGGGGSGGGGSGGGGSEVQLVESGGGLVQPGGSLRLSCAASGFTFSSYAMSWVRQAPGKGLEWVSTINSGTNSPYYADSVKGRFTISRDNSKNTLYLQMNSLRAEDTAVYYCAKNFFDGSWFLDPPAMDYWGQGTLVTVSSHHHHHH ; field requested: kon
[reply] 260000 M⁻¹ s⁻¹
